Hello, the source for this data is patent US11427604B2, in case you need it.

Experiment: In vivo pharmacokinetics in male C57BL/6 mice
Set-up: species or system mouse
Conditions: mouse, plasma, po, p.o. 10 mg/kg, read-out: Apparent t1/2 (converted)
PARAMETER_MEASURED: half-life

[[record]]
compound = "[2H]C([2H])([2H])N(C([2H])([2H])[2H])C([2H])([2H])C([2H])([2H])c1c[nH]c2cccc(O)c12 [Compound I-45]"
endpoint_result = "4.52 h"


* * *

Experiment: In vivo pharmacokinetics in male C57BL/6 mice
Parameters: species or system mouse
Details: mouse, plasma, iv, i.v. 1 mg/kg, read-out: Apparent t1/2 (converted)
PARAMETER_MEASURED: half-life (h)

[[record]]
item_smiles = "[2H]C([2H])([2H])N(C([2H])([2H])[2H])C([2H])([2H])C([2H])([2H])c1c[nH]c2cccc(O)c12"
parameter_measured = "half-life"
endpoint_result = 5.32

